system.under.test: human HER4 (human, UniProt Q15303 26-1308)
Sequence (Q15303 26-1308 limits assumed): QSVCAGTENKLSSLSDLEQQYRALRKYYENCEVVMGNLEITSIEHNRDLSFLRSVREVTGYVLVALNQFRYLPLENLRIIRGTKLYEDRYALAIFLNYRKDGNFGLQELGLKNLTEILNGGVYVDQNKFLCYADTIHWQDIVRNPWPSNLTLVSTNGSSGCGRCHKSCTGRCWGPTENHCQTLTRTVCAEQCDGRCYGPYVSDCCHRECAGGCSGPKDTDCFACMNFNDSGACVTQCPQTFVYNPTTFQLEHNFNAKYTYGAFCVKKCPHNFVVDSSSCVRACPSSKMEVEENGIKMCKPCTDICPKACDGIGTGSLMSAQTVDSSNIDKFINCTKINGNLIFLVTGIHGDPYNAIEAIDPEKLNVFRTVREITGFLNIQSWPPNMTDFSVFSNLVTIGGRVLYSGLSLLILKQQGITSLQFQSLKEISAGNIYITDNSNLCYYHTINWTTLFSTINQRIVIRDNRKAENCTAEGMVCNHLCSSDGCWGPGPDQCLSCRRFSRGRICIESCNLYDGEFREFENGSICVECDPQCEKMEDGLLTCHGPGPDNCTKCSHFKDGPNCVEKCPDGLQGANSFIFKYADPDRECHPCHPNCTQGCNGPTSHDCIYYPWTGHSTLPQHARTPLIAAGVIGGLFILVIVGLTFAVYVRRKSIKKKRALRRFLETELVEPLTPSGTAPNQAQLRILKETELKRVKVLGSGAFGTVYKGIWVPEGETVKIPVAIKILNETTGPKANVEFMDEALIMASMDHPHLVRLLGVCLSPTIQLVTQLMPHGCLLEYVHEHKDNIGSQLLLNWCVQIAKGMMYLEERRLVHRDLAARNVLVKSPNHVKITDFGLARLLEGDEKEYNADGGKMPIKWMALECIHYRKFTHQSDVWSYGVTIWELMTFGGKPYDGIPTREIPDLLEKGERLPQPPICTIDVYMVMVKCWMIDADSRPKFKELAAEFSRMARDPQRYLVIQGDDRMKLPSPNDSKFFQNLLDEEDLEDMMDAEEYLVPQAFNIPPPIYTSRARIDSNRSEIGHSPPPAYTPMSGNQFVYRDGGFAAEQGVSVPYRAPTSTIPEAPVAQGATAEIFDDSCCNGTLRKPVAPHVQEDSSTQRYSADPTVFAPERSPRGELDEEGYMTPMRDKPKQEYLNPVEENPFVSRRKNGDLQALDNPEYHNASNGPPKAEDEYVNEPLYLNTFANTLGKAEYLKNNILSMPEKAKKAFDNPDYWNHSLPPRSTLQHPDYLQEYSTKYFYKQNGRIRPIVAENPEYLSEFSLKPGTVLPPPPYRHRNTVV
test.name: FACS CHO-HER4, 667 nM
parameter: MCF

The following binders have reported results that may help.
{"binder": "17C08 (VHH, also called 17C8) VHH: EVQLVESGGGLMQAGDSLRLSCAASGRAFSSYALGWFRRAPGKERECVAATDRLGDNTYFPDSVKGRFTISRDNAKNTLYLQMNNLKPEDTAVYYCAAGAVRYGVSTSPMNYNYWGQGTQVTVSS", "parameter": "MCF", "experimental.result": 91}
{"binder": "21F06 (VHH, c-myc, His6-tagged form as expressed; also called 21F6; HER3MS21F06) VHH: EVQLVESGGGLVQAGGSLRLSCAASGRTYYLNAMGWFRQGPGKDREFVAAIDWSDGNKDYADSVKGRFTISRDNAKNTVYLQMNSLKPEDTAVYYCAADTPPWGPMIYIESYDSWGQGTQVTVSS", "parameter": "MCF", "experimental.result": 225}

A = 04C07 (VHH, also called HER3MS04C07; HER3MS004C07) VHH: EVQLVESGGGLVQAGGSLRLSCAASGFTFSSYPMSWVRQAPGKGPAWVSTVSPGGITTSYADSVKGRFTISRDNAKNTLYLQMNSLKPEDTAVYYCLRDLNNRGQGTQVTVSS
B = 18F05 (VHH, also called 18F5) VHH: EVQLVESGGGLVQPGGSLRLSCVASGFTFSSYWMYWVRQAPGKGVEWVSAISPGGVERYTDSVKGRFTISRDNAKNTLYLQMNSLKSEDTAMYYCARLTSFATPESQGTQVTVSS
Q) Returns the identifier with the smallest measured MCF among A and B . To answer, give the label that identifies your chosen option.
A) A
